Target: T1, human C1s (human, UniProt P09871 16-688)
T1 construct: also called hC1s; serum-derived human C1s (CompTech)
T1 sequence: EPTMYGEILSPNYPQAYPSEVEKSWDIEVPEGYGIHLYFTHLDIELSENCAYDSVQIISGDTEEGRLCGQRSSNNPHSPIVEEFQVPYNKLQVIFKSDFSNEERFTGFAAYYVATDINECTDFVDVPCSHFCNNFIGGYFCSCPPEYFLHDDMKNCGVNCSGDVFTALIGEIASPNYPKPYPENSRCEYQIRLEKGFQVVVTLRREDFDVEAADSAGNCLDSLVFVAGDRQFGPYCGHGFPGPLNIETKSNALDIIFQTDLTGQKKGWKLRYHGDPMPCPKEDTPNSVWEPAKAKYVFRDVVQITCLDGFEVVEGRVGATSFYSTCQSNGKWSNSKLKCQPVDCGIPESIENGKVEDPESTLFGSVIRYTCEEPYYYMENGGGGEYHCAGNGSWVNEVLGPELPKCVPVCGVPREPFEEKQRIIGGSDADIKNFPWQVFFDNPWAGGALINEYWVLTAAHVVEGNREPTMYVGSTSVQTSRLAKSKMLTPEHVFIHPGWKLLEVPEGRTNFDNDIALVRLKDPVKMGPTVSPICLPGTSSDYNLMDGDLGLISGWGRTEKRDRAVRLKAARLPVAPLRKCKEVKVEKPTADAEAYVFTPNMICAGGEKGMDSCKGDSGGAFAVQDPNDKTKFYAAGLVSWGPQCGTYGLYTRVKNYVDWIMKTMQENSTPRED
Assay: SPR, Ab captured; pH 7.4, 1.2 mM Ca
Measured Quantity: koff

C1_IPN009VH2-SG4GK/IPN93L0028-SK1 (antibody, human IgG4 S228P, kappa, name in Kabat numbering, V domains shown, also called IPN009VH2/IPN93L0028) VH: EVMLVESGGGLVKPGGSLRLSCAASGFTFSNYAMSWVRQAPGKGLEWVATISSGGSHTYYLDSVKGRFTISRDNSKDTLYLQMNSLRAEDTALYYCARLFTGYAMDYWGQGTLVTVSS VL: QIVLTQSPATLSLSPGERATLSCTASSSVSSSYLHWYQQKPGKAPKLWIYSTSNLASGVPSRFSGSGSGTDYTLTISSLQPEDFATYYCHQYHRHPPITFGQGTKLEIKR
0.00476 s⁻¹
C1_IPN92H0038-SG4GK/IPN009VK3-SK1 (antibody, human IgG4 S228P, kappa, name in Kabat numbering, V domains shown, also called IPN92H0038/IPN009VK3) VH: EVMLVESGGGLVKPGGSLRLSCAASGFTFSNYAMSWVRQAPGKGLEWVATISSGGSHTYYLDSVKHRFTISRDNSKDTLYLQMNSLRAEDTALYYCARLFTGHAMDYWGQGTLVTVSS VL: QIVLTQSPATLSLSPGERATLSCTASSSVSSSYLHWYQQKPGKAPKLWIYSTSNLASGVPSRFSGSGSGTDYTLTISSLQPEDFATYYCHQYYRLPPITFGQGTKLEIKR
0.000282 s⁻¹
C1_IPN92H0038-SG4GK/IPN93L0021-SK1 (antibody, human IgG4 S228P, kappa, name in Kabat numbering, V domains shown, also called IPN92H0038/IPN93L0021) VH: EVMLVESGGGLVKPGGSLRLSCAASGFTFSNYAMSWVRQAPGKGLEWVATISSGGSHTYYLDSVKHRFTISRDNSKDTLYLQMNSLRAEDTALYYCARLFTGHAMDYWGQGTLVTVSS VL: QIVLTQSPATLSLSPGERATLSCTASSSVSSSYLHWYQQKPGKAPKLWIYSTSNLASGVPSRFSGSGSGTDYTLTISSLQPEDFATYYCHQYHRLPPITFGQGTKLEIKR
0.000477 s⁻¹
